The measurements presented in this section are drawn from PubChem BioAssay AID1918937.

- Test system: 521955-158-R2-J5-PDC complex spheroid viability;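 also: spheroids exposed to agents for seven days; percent of DMSO vehicle control luminescence viability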
- EXPERIMENT_DESCRIPTION: Anticancer human tumor 521955-158-R2-J5-PDC patient-derived pancreatic carcinoma cell line growth inhibition
- TEST_CONTEXT: second compound 0.1 µM; first compound 0.0316 µM; stronger effect = lower value
- Description: Multicellular complex tumor spheroid response to LSD1 Inhibitor Iadademstat in combination with a variety of drugs and investigational agents in selected tumor cell lines The current study was undertaken to assess response to LSD1 inhibitors in combination with standard-of-care drugs and investigational agents in solid tumor complex spheroid models as well as in the K-562 leukemia. […] Compounds. […] If the clinical Cmax for an agent had not been determined, the highest concentration tested was 10 microM. […]
EXPERIMENTAL_READOUT: viability, T/C (%)
// note: answer is a bare numeric in %

[
  {
    "MOLECULE": "CC(C)CC(NC(=O)C(Cc1ccccc1)NC(=O)c1cnccn1)B(O)O (centres undefined) + NC1CC1c1ccc(-c2cccc(O)c2)cc1",
    "EXPERIMENTAL_READOUT": "viability, T/C",
    "MEASURED_VALUE": 0.09
  }
]

[ask] Given the entry CC[C@@]1(O)C(=O)OCc2c1cc1n(c2=O)Cc2cc3c(CN(C)C)c(O)ccc3nc2-1 + NC1CC1c1ccc(-c2cccc(O)c2)cc1 , report its measured viability, T/C.
[reply] 15.6

[ask] Next: CC[C@@]1(O)C(=O)OCc2c1cc1n(c2=O)Cc2cc3c(CN(C)C)c(O)ccc3nc2-1 + NC1CCC(NC2CC2c2ccccc2)CC1
[reply] 7.11

[ask] Can you check Cn1ncnc1C1c2n[nH]c(=O)c3cc(F)cc(c23)NC1c1ccc(F)cc1 (centres undefined) + NC1CC1c1ccc(-c2cccc(O)c2)cc1 next?
[reply] 77.3
